- Test system: Rattus norvegicus
- PROTOCOL_TEXT: In vivo inhibition angiotensin I induced pressor effect after po administration of 5 umol/kg in rats
- Format: functional
Could you label it Criterion met if measured inhibition in vivo at 5 µmol/kg is 70% or higher, and Criterion not met otherwise?

- COMPOUND_SMILES: "NCCCC[C@H](OP(=O)(O)CCCCc1ccc(F)cc1)C(=O)N1CCC[C@H]1C(=O)O"
  QUALITATIVE_LABEL: "Criterion met"
- COMPOUND_SMILES: "N=C(N)NCCC[C@H](OP(=O)(O)CCCCc1ccccc1)C(=O)N1CCC[C@H]1C(=O)O"
  QUALITATIVE_LABEL: "Criterion not met"
- COMPOUND_SMILES: "NCCC[C@H](OP(=O)(O)CCCCc1ccccc1)C(=O)N1CCC[C@H]1C(=O)O"
  QUALITATIVE_LABEL: "Criterion not met"
- COMPOUND_SMILES: "CCCCCCCCCCP(=O)(O)O[C@@H](CCCCN)C(=O)N1CCC[C@H]1C(=O)O"
  QUALITATIVE_LABEL: "Criterion not met"
- COMPOUND_SMILES: "CCCCCCCCP(=O)(O)O[C@@H](CCCCN)C(=O)N1CCC[C@H]1C(=O)O"
  QUALITATIVE_LABEL: "Criterion met"
- COMPOUND_SMILES: "NCCCC[C@H](OP(=O)(O)CCCc1ccccc1)C(=O)N1CCC[C@H]1C(=O)O"
  QUALITATIVE_LABEL: "Criterion not met"
